# assayed.target: Cry2 PHR (L348F)-p65AD-NLSx2 fusion construct as released from the TetR (I194T, 1-206)-CIB1 (-NLS)-T2A-Cry2 PHR (L348F)-p65AD-NLSx2 fusion construct
# Sequence (Q96524 other isoform, or with tags, fused parts or gaps L348F I194T L348F L348F I194T L348F): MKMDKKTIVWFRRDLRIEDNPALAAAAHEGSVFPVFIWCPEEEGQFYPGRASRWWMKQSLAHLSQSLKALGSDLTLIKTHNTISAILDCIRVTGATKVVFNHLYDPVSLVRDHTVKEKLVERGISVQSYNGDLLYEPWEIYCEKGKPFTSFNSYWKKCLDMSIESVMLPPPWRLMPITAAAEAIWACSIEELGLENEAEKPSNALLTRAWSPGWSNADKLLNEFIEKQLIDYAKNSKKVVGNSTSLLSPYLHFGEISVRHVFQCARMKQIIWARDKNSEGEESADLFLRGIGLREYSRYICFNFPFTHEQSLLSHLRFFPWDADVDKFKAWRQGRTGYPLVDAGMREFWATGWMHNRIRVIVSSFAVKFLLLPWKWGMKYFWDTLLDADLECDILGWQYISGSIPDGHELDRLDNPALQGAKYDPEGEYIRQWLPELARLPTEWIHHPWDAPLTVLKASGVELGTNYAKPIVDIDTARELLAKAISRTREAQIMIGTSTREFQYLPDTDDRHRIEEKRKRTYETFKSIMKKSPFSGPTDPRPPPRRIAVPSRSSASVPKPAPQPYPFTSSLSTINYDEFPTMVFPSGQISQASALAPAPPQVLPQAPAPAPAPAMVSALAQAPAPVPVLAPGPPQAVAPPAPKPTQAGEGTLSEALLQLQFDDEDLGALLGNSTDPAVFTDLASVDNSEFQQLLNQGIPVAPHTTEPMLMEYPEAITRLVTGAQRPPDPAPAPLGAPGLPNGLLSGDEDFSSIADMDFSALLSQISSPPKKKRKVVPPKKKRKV
# experimental.details: cell-based or functional assay
The following binders are shown together with reported Light/Dark, Dox 75 ng/mL values.
Number, no unit, nothing else.

| binder | Light/Dark, Dox 75 ng/mL |
| --- | --- |
| rTetR (I194T, S2 mutation, 1-206)-CIB1 (-NLS) from the T2A construct (protein, part only; not given: Leftover T2A residues, part only) chain, part: MARLDKSKVINSALELLNGVGIEGLTTRKLAQKLGVEQPTLYWHVKNKRALLDALPIEMLDRHHTHFCPLEGESWQDFLRNNAKSFRCALLSHRDGAKVHLGTRPTEKQYETLENQLAFLCQQGFSLENALYALSAVGHFTLGCVLEEQEHQVAKEERETPTTDSMPPLLRQAIELFDRQGAEPAFLFGLELITCGLEKQLKCESGSPKKKHMEFNGAIGGDLLLNFPDMSVLERQRAHLKYLNPTFDSPLAGFFADSSMITGGEMDSYLSTAGLNLPMMYGETTVEGDSRLSISPETTLGTGNFKAAKFDTETKDCNEAAKKMTMNRDDLVEEGEEEKSKITEQNNGSTKSIKKMKHKAKKEENNFSNDSSKVTKELEKTDYI | 3.1 |
| rTetR (I194T, M2 mutation, 1-206)-CIB1 (-NLS) from the T2A construct (protein, part only; not given: Leftover T2A residues, part only) chain, part: MARLDKSKVINGALELLNGVGIEGLTTRKLAQKLGVEQPTLYWHVKNKRALLDALPIEMLDRHHTHFCPLEGESWQDFLRNNAKSFRCALLSHRDGAKVHLGTRPTEKQYETLENQLAFLCQQGFSLENALYALSAVGHFTLGCVLEEQEHQVAKEERETPTTDSMPPLLRQAIELFDRQGAEPAFLFGLELITCGLEKQLKCESGSPKKKHMEFNGAIGGDLLLNFPDMSVLERQRAHLKYLNPTFDSPLAGFFADSSMITGGEMDSYLSTAGLNLPMMYGETTVEGDSRLSISPETTLGTGNFKAAKFDTETKDCNEAAKKMTMNRDDLVEEGEEEKSKITEQNNGSTKSIKKMKHKAKKEENNFSNDSSKVTKELEKTDYI | 38.4 |

Entry TetR (I194T, H100Y, 1-206)-CIB1 (-NLS) from the T2A construct (protein, part only, T2A residues at C-terminus) MARLDKSKVINSALELLNEVGIEGLTTRKLAQKLGVEQPTLYWHVKNKRALLDALAIEMLDRHHTHFCPLEGESWQDFLRNNAKSFRCALLSHRDGAKVYLGTRPTEKQYETLENQLAFLCQQGFSLENALYALSAVGHFTLGCVLEDQEHQVAKEERETPTTDSMPPLLRQAIELFDHQGAEPAFLFGLELITCGLEKQLKCESGSPKKKHMEFNGAIGGDLLLNFPDMSVLERQRAHLKYLNPTFDSPLAGFFADSSMITGGEMDSYLSTAGLNLPMMYGETTVEGDSRLSISPETTLGTGNFKAAKFDTETKDCNEAAKKMTMNRDDLVEEGEEEKSKITEQNNGSTKSIKKMKHKAKKEENNFSNDSSKVTKELEKTDYI : reported Light/Dark, Dox 75 ng/mL = ?
22.7
